Catalogue of molecules with associated inhibition at 0.005 µM
Biological target: DPP1 in HL-60 cells (Homo sapiens)
Sequence (P53634 25-463): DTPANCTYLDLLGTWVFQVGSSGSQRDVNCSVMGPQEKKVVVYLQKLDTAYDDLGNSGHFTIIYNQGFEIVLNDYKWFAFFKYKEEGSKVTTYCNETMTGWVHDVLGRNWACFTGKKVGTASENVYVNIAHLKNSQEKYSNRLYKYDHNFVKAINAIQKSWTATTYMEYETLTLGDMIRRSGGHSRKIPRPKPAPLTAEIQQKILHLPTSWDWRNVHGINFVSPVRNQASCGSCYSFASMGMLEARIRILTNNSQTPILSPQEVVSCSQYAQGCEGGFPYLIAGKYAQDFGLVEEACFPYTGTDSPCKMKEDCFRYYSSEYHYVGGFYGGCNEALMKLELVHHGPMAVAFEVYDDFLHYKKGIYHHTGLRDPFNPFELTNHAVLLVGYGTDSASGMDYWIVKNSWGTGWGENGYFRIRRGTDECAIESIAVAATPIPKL
Test: DPP1 Cell Single-Point Percent Inhibition Testing
Type: cell-based
Set-up: host or cells: HL-60 cells
Conditions: final compound concentration 5 nM, n = 1

>  <molecule>
Cc1nc(C)c2cc(-c3ccc(C[C@@H](C#N)NC(=O)[C@@H]4CNCCCCO4)cc3)cn2c1C

>  <inhibition at 0.005 µM>
76.5 to 93.9%

$$$$
>  <molecule>
CO[C@@H]1CCNC[C@@H](C(=O)N[C@H](C#N)Cc2ccc(-c3cnc4c(n3)CCCC4)cc2)OC1

>  <inhibition at 0.005 µM>
≤ 76.5%

$$$$
>  <molecule>
CN1CCN(Cc2ccc(-c3ccc(C[C@@H](C#N)NC(=O)[C@@H]4CNCCCCO4)c(F)c3)cc2)CC1

>  <inhibition at 0.005 µM>
≤ 76.5%

$$$$
>  <molecule>
CN1CCCC2(C1)C(=O)N(C)c1ccc(-c3ccc(C[C@@H](C#N)NC(=O)[C@@H]4CNCCCO4)c(F)c3)cc12 (some centres unmarked)

>  <inhibition at 0.005 µM>
≤ 76.5%

$$$$
>  <molecule>
N#C[C@H](Cc1ccc(-c2ccc3c(c2)C2(CCN(C4CCC4)CC2)OC3)cc1F)NC(=O)[C@@H]1CNCCCCO1

>  <inhibition at 0.005 µM>
≤ 76.5%

$$$$
>  <molecule>
CO[C@@H]1CCNC[C@@H](C(=O)N[C@H](C#N)Cc2ccc(-c3ccc4c(n3)CCCN4)cc2F)OC1

>  <inhibition at 0.005 µM>
76.5 to 93.9%

$$$$
>  <molecule>
CCN1C(=O)Cc2ccc(-c3ccc(C[C@@H](C#N)NC(=O)[C@@H]4CN[C@@H](C)[C@H](O)CO4)c(F)c3)cc21

>  <inhibition at 0.005 µM>
≤ 76.5%

$$$$
>  <molecule>
COC1CNC[C@@H](C(=O)N[C@H](C#N)Cc2ccc(-c3cc4c(C)nc(C)c(C)n4c3)cc2)OC1 (some centres unmarked)

>  <inhibition at 0.005 µM>
≥ 93.9%

$$$$
>  <molecule>
CO[C@@H]1CCNC[C@@H](C(=O)N[C@H](C#N)Cc2ccc(-c3ccc4c(c3)C3(CCN(C5COC5)CC3)OC4)cc2F)OC1

>  <inhibition at 0.005 µM>
≤ 76.5%

$$$$
>  <molecule>
Cc1ncc(C)n2cc(-c3ccc(C[C@@H](C#N)NC(=O)[C@@H]4CNCCCO4)cc3)cc12

>  <inhibition at 0.005 µM>
76.5 to 93.9%

$$$$
>  <molecule>
CCN1C(=O)Cc2ccc(-c3ccc(C[C@@H](C#N)NC(=O)[C@@H]4CNCC(OC)CO4)c(F)c3)cc21 (some centres unmarked)

>  <inhibition at 0.005 µM>
≥ 93.9%

$$$$
>  <molecule>
N#Cc1ccc2c(c1)-c1cc(F)c(CC(C#N)NC(=O)[C@@H]3CNCCCO3)cc1OC2 (some centres unmarked)

>  <inhibition at 0.005 µM>
≤ 76.5%

$$$$
>  <molecule>
CO[C@H]1CCO[C@H](C(=O)N[C@H](C#N)Cc2ccc(-c3ccc4c(c3)C3(CC4)CCN(C)CC3)cc2F)CNC1

>  <inhibition at 0.005 µM>
≤ 76.5%

$$$$
>  <molecule>
N#C[C@H](Cc1ccc(-c2ccc(S(=O)(=O)N3CCC3)cc2)cc1F)NC(=O)[C@@H]1CNCCCO1

>  <inhibition at 0.005 µM>
≤ 76.5%

$$$$
